tested on: HCT-15 colon; assay: NCI-60 one-dose screen, 48 h (100 = growth as untreated, 0 = no growth, -100 = all killed); details: 10 µM
This is part of a sample that, as a whole, favours compounds with a hit. Of some 83,000 tested, about 20% had one in any assay.
Field: growth. Provide a value for each of the molecules that follow.
// units = %; emit number, no label

Fill blank: measured growth of the molecule FC(F)(F)c1ccc(-c2cnc(-n3cc(COCCN4CCCCC4)nn3)nc2NC2CCCCCC2)cc1 is ____. 3.73

Same read-out for O=C(Nc1ccc(Cl)c([N+](=O)[O-])c1)Nc1nc2ccccc2s1 ? 92.3

Quick one: Nc1cc2c(cc1Cl)-c1ccc([N+](=O)[O-])cc1/C2=N\O 62.9

Another: Clc1nc(Cl)c2c(ncn2C/C=C\Cn2cnc3c(Cl)nc(Cl)nc32)n1 -85.4

Next molecule up: COc1ccc(-c2nn(-c3cccc(NC(=O)Nc4cc(C(F)(F)F)cc(C(F)(F)F)c4)c3)cc2-c2ccncc2)cc1Cl 12.1

Note, next up: Cc1cc2c(C)c3cc(C)c(N)cc3nc2cc1N 24.8

Can you check CN(C)c1ccc(Cc2ccc(N(C)C)cc2Cl)c(Cl)c1 next? 101

Another: O=C(Cc1csc2nc(-c3ccc(Cl)cc3)cn12)N/N=C/c1ccccc1O 17.2

Cool, now COc1ccc(NC2=NC(C)(CO)CS2)cc1 (stereo unspecified) 90.3

And for c1ccc(CSc2nnc3c4c5c(sc4nc(-c4cccnc4)n23)CCCCCC5)cc1 ? 94.2

Here is the next molecule: N#CCCN(NC(=O)OCc1ccccc1)C(=O)OCc1ccccc1 107

Input COc1cc2c(cc1OCCCN1CCN(c3ncnc4ccccc34)CC1)N=CC1CCCN1C2=O (stereo unspecified) 1.25

Similarly, O=C(Nc1cccc(-n2cc(-c3ccncc3)c(-c3cc(O)cc(Cl)c3)n2)c1)Nc1ccc(Cl)c(C(F)(F)F)c1 ? 5.79

Same lookup for CCCC#CCN(CC)CC , please. 99.6

Same for CCCCCCCCCCCC[n+]1ccc(C(N)=O)cc1 87.3

What do you have for COc1cc(/C=N/NC(=O)c2ccccc2Nc2cccc(C(F)(F)F)c2)cc(OC)c1OC ? 7.05

Do the same for O=C(CC(C(=O)c1ccccc1)N1CCOCC1)c1ccccc1 (stereo unspecified) please 85

And what about the molecule CN(C)CCCn1c(=O)c2ccccc2c2cnc3[nH]ccc3c21 ? 10.5

Entry COc1ccc2c(c1)C(=O)c1c-2c(=O)n(CCCN(C)C)c2cc(OC)c(OC)cc12 please 82.2

// repeat for Clc1cc2c(c(CSc3nc4ccccc4n4cccc34)c1)OCOC2 and report 71.4

# repeat for CC12O[C@H](C[C@@H](OC(=O)c3ccccc3)[C@H]1O)n1c3ccccc3c3c4c(c5c6ccccc6n2c5c31)C(=O)NC4=O 77.7

Next molecule: COc1ccc(-c2nn(-c3cccc(NC(=O)Nc4ccccc4)c3)cc2-c2ccncc2)cc1Cl 16.6

Quick one: COc1ccc(-c2cc(/C=C3\C(=O)Nc4ccc(OC)cc43)[nH]n2)cc1 22.8

How about this molecule: Cn1c([N+](=O)[O-])cnc1/C=C1\Oc2cc(Cl)ccc2C1=O 3.55

Consider next the molecule Cc1ccc(-c2nc(/C=C3/C(=O)N(C)c4ccc(F)cc43)c3ccccn23)cc1 in the same way. 93

Field entry: COc1cccc(C2C3=C(COC3=O)N(CCO)c3cc(OC)ccc32)c1 (stereo unspecified) 11.3

Also O=C(Nc1ccccc1)Nc1cccc(-n2cc(-c3ccncc3)c(-c3ccc(O)c(Cl)c3)n2)c1 ? 24.7

Moving on to the next molecule: N=c1nc(N)ncn1-c1ccccc1 99.1

Further, for CCCCC/C=C/C(=O)CCc1ccc(O)c(OC)c1 ? 88.2

Next entry: COc1ccc(Nc2ccnc(NCCNc3ccnc4cc(Cl)ccc34)n2)cc1 36.8

Entry COc1ccc2c(c1)O/C(=C\c1ccc([N+](=O)[O-])o1)C2=O please 2.39

Input Cn1c([N+](=O)[O-])cnc1/C=C1\Oc2ccc(Cl)cc2C1=O -8.74

Do the same for CN1CCC(CNc2cc(C3(C(=O)Nc4cc(C(=O)Nc5ccc(Cl)c(C(F)(F)F)c5)ccc4F)CC3)ncn2)CC1 please -20.3

Queued: Cc1cc2ccccc2nc1-c1ccccc1F 101

Follow-up item: CN(C)CCOc1nc2ccccc2c2c1-c1ccc(Cl)cc1C2=O 5.59

Also COc1cc(CNCCCCCCN2C(=O)c3cccc4cccc(c34)C2=O)ccc1O , if possible. 74.7

CCN(CC)CCN1CC(=O)Nc2cc(Cl)ccc21 , same question. 107

And CC[C@H](C)C(=O)O[C@H]1CCC=C2C=C[C@H](C)C(CCC3C[C@@H](O)CC(=O)O3)[C@H]21 (stereo partly specified) ? 55.8

Check COc1ccc(-c2nn(-c3cccc(NC(=O)c4ccc(N5CCOCC5)c(C(F)(F)F)c4)c3)cc2-c2ccncc2)cc1Cl too. 53.5

Next: Cc1cc(=O)[nH]c(N/N=C/c2ccccc2O)n1 40.7

Same question, O=C(Nc1cccc(-n2cc(-c3ccncc3)c(-c3cc(O)cc(Cl)c3)n2)c1)c1cc(C(F)(F)F)cc(C(F)(F)F)c1 this time 30.1

###

tested on: SK-OV-3 ovarian; test: NCI-60 one-dose screen, 48 h (100 = growth as untreated, 0 = no growth, -100 = all killed); conditions: 10 µM
This is part of a sample that, as a whole, favours compounds with a hit. Of some 83,000 tested, about 20% had one in any assay.
readoutKind: growth (%)
Write the number in % without appending the unit.

growth of COc1ccc(-c2nn(-c3cccc(NC(=O)c4cc(C(F)(F)F)cc(C(F)(F)F)c4)c3)cc2-c2ccncc2)cc1Cl on SK-OV-3 ovarian? 75.2

Item: COc1ccc(/C=C/C(C)=N/OCC(=O)O)cc1 101

Same again, this time with COc1ccc(-c2nc(-c3nc4cc(Cl)c(Cl)cc4[nH]3)c3ccccn23)cc1 -25.1

Request: CN(C)N=Nc1nn(C(=O)Nc2ccc(Cc3ccccc3)cc2)c2ccccc12 102

COc1ccc2c(c1)O/C(=C\c1ncc([N+](=O)[O-])n1C)C2=O , same question. -15.9

Then what about the molecule CSC1=NCCCC1 ? 108

Next molecule up: COc1cccc(NC(=O)c2sc3nc4c(cc3c2N)C(O)CCC4)c1 (stereo unspecified) 24

How about this molecule: c1ccc(CNc2ncnc3scc(-c4cccs4)c23)nc1 85.1

Another: O=[N+]([O-])c1ccc(Oc2cccnc2)c([N+](=O)[O-])c1 104

And for O=C(/C(=C/c1ccccc1)CN1CCCCC1)c1ccccc1 ? 31

Also COc1ccc(C(=O)/C=C/c2cc(-c3cc(OC)c(OC)c(OC)c3)n[nH]2)cc1 , if possible. 25.7

###

tested on: HOP-62 NSCLC; assay: NCI-60 one-dose screen, 48 h; settings: 10 µM
About 83,000 compounds went through this panel and 20% of them were active in at least one assay; those are over-represented in the sample as a whole. Calls of active or inactive are those of the source. The calls were made as follows: active = growth percent below 10; inactive = the rest.
Could you please pick one outcome from this set? active, inactive

// outcome(item) with item = CSc1nn(-c2ccccc2)c2ncnc(Oc3ccccc3)c12 inactive

And N=c1c2c(-c3ccccc3)c(-c3ccccc3)n(Cc3ccccc3)c2ncn1CCCO ? inactive

// repeat for CSc1nn(-c2ccccc2)c2ncnc(Oc3ccc(C)cc3)c12 and report inactive

And then COc1ccc(Nc2nc3ccc(NC(=O)NC4CCCCC4)cc3[nH]c2=O)cc1 , what is it? inactive

Proceed to CN(C)C=Nc1cc(Cl)ccc1Cl inactive

Field entry: Cc1cc2c(C)c3cc(C)c(N)cc3nc2cc1N active

###

test system: SF-295 CNS; assay: NCI-60 one-dose screen, 48 h (100 = growth as untreated, 0 = no growth, -100 = all killed); conditions: 10 µM
This is part of a sample that, as a whole, favours compounds with a hit. Of some 83,000 tested, about 20% had one in any assay.
Cut-off 80% on growth, inclusive. At or above means Yes; below means No.

In plain terms: is recorded growth at least 80% for Cc1cccc(Cl)c1NC(=O)c1ccc2nc(NC(=O)NC3CCN(C)CC3)sc2c1 ? Yes

Similarly, O=C1C(c2ccccc2)C2C=CC(C2)N1O (stereo not given) ? Yes

Another compound to check: O=C(NC(Cc1ccc(O)cc1)C(=O)N=Nc1c(O)[nH]c2ccccc12)c1ccccc1 (stereo not given) Yes

# repeat for N#Cc1ncc(-c2cc(F)c(F)c(F)c2)c(NC2CCCCCC2)n1 Yes

Okay, and N#Cc1cc(-c2cc3ccccc3o2)oc1N ? No

Now consider O=C1/C(=C\c2ccc(F)cc2)CN(C(=O)c2ccccc2F)C/C1=C\c1ccc(F)cc1 . No

Same read-out for COc1cc(/C=N/NC(=O)c2ccccc2Nc2cccc(C(F)(F)F)c2)cc(OC)c1OC ? No

Now consider FC(F)(F)c1ccc2nc(-c3nc(-c4ccccc4)n4ccccc34)[nH]c2c1 . Yes

Follow-up entry: COc1cc(-c2cc(/C=C3\C(=O)Nc4cc(Cl)ccc43)[nH]n2)cc(OC)c1OC No

Okay, and COc1ccc(Cl)cc1-n1nnc(-c2nc3ccccc3[nH]2)c1N ? No
